Provenance of the data: ChEMBL document CHEMBL4020755

assay-details: Half life in Balb/c mouse at 10 mg/kg administered orally measured up to 24 hrs by LC-MS/MS analysis
Format: ADME, organism-based
study-conditions: in vivo, po
quantity-kind: half-life (min)

[2H]C1([2H])CC([2H])([2H])C12C(=O)N(c1cnc(C#N)c(C(F)(F)F)c1)C(=S)N2c1ccc(C(=O)NC)c(F)c1 : 1940
[2H]C([2H])([2H])NC(=O)c1ccc(N2C(=S)N(c3cnc(C#N)c(C(F)(F)F)c3)C(=O)C23CCC3)cc1F : 1940
CNC(=O)c1ccc(N2C(=S)N(c3cnc(C#N)c(C(F)(F)F)c3)C(=O)C23CCC3)cc1F [APALUTAMIDE] : 354

P = [2H]c1cc(C(=O)NC)c(F)c([2H])c1N1C(=S)N(c2cnc(C#N)c(C(F)(F)F)c2)C(=O)C12CCC2
Q = [2H]c1cc(C(=O)NC([2H])([2H])[2H])c(F)c([2H])c1N1C(=S)N(c2cnc(C#N)c(C(F)(F)F)c2)C(=O)C12CCC2
Query: Consider P and Q . Which of these has its half-life at a higher number? Give the label of your selection.
Response: Q
